// reported LD50 per item
experiment: Acute toxicity on mice, oral; type: in vivo; conditions: mouse, in vivo, po, mice weighing 18 to 22 g, orally
metric-name: LD50

• Cc1c(N)nc(N2CCN(c3ccccn3)CC2)c2ccccc12 = 2000 mg/kg
• Nc1cc2ccccc2c(N2CCN(c3ccccn3)CC2)n1 = 2000 mg/kg
• Cc1c(N)nc(N2CCOCC2)c2ccccc12 = 2000 mg/kg
• Nc1cc2ccccc2c(N2CCOCC2)n1 = > 2000 mg/kg
